# experimental.target: CB1 cannabinoid receptor (Rattus norvegicus, UniProt P20272)
# Construct: membranes were prepared from rat forebrain membranes; from tissue; host or cells: rat forebrain membranes
# Sequence (P20272 whole entry): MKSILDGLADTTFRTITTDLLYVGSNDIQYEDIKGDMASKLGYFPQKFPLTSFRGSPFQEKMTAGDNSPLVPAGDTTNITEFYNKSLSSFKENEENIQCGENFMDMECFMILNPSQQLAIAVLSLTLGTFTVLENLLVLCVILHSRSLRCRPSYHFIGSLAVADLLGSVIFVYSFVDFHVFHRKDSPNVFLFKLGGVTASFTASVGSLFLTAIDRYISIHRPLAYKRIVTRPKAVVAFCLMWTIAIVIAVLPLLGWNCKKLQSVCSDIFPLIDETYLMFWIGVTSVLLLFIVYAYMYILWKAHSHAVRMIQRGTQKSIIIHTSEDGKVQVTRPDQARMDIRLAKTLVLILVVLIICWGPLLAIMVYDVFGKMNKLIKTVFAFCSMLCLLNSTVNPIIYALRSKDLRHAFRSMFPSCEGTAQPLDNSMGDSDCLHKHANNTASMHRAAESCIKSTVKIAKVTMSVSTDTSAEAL
# test.description: CB1 receptor binding assay ([3H] CP-55,940 displacement, rat forebrain membranes)
# experimental.setup: 0.8 nM [3H] CP-55,940, read-out: CB1 (nM) binding affinity (Ki)
measurement.label: Ki
Answer format: number, then unit.

Completed entries (count: 2):
CCCCCCC(C)(C)c1cc(O)c(-c2cccc(C#N)c2)c(O)c1	20 nM
CCCCCCC(C)(C)c1cc(O)c(-c2cc(CO)ccc2CO)c(O)c1	29.6 nM

Proceed to the following item.
Query string: Give recorded Ki. "CCCCCCC(C)(C)c1cc(O)c(-c2ccc(C(=O)OCC)o2)c(O)c1"
Result string: 3220 nM

###

Quick reference: Ki of the listed items.
# experimental.target: CB1 cannabinoid receptor (Rattus norvegicus, UniProt P20272)
# Construct: membranes were prepared from rat forebrain membranes; from tissue; host or cells: rat forebrain membranes
# test.description: CB1 receptor binding assay ([3H] CP-55,940 displacement, rat forebrain membranes)
# experimental.setup: 0.8 nM [3H] CP-55,940, read-out: CB1 (nM) binding affinity (Ki)
Answer with a number only, understood to be in nM.

Use the examples below as a reference point.
CCCCCCC(C)(C)c1cc(O)c(-c2cc(O)ccc2CO)c(O)c1	141
CCCCCCC(C)(C)c1cc(O)c(-c2cc(F)ccc2CO)c(O)c1	24.5
CCCCCCC(C)(C)c1cc(O)c(-c2cc(C)ccc2F)c(O)c1	6.5

Query string: Provide only the value of recorded Ki for "CCCCCCC(C)(C)c1cc(O)c(-c2cc(C)c(N)c(C)c2)c(O)c1"
Result string: 797

Query string: Indicate the recorded Ki value for this molecule: "CCCCCCC(C)(C)c1cc(O)c(-c2cc(F)cc(F)c2)c(O)c1"
Result string: 57.5

Query string: Name the recorded Ki of the item "CCCCCCC(C)(C)c1cc(O)c(-c2c(Cl)ccc(Cl)c2Cl)c(O)c1" in your answer.
Result string: 23.2

Query string: Tell me its Ki given "CCCCCCC(C)(C)c1cc(O)c(-c2cc(Br)ccc2CO)c(O)c1" as the entry.
Result string: 8.6

Query string: Answer with the recorded Ki for the molecule listed here: "CCCCCCC(C)(C)c1cc(O)c(-c2cc([N+](=O)[O-])cc([N+](=O)[O-])c2)c(O)c1"
Result string: 199

###

Reported Ki is given for each of the following molecules.
# experimental.target: CB2 receptor (Mus musculus)
# Construct: membranes were prepared from frozen mouse spleen; from tissue; host or cells: frozen mouse spleen membranes
# Sequence (P47936 whole entry): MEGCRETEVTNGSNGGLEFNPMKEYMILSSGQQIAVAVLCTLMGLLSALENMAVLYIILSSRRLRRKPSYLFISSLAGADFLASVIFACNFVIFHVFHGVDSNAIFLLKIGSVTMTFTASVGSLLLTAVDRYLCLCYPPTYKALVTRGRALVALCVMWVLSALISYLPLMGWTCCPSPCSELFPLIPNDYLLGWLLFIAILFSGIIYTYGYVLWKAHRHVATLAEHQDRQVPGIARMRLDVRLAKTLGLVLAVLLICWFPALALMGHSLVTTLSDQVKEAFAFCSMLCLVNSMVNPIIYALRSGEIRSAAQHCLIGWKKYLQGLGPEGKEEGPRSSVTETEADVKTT
# test.description: CB2 receptor binding assay ([3H] CP-55,940 displacement, mouse spleen membranes)
# Description: The treated membranes were subsequently used in the binding assay described below. […] Radioactivity was detected using MicroScint 20 scintillation cocktail added directly to the dried filterplates, and the filterplates were counted using a Packard Instruments Top-Count. […] The normalized data was analyzed using a 4-parameter nonlinear logistic equation to yield IC50 values. […]
Give the quantity in nM, number only.

Use the examples below as a reference point.
CCCCCCC(C)(C)c1cc(O)c(-c2ccc(C(=O)OCC)o2)c(O)c1	35.4
CCCCCCC(C)(C)c1cc(O)c(-c2cc(O)ccc2CO)c(O)c1	4.5
CCCCCCC(C)(C)c1cc(O)c(-c2cccc(C(C)=O)c2)c(O)c1	11.3
CCCCCCC(C)(C)c1cc(O)c(-c2cncc(C(=O)OCC)c2)c(O)c1	0.2
CCCCCCCN(C)c1cc(O)c(-c2cc(OC)ccc2C(=O)N(C(C)C)C(C)C)c(OC)c1	154
CCCCCCC(C)(C)c1cc(O)c(-c2cc(Br)ccc2CO)c(O)c1	0.7

Next molecule, please.
Query string: Give the reported value of Ki for this record: "CCCCCCC(C)(C)c1cc(O)c(-c2c(Cl)ccc(Cl)c2Cl)c(O)c1"
Result string: 3.4

###

# experimental.target: CB1 cannabinoid receptor (Rattus norvegicus, UniProt P20272)
# Construct: membranes were prepared from rat forebrain membranes; from tissue; host or cells: rat forebrain membranes
# test.description: CB1 receptor binding assay ([3H] CP-55,940 displacement, rat forebrain membranes)
# experimental.setup: 0.8 nM [3H] CP-55,940, read-out: CB1 (nM) binding affinity (Ki)
Reported Ki values are given for each entry in this list.
Please give a number only; it is taken to be in nM.

Take a look at these entries with their results.
CCCCCCC(C)(C)c1cc(O)c(-c2cc(C)c(O)c(C)c2)c(O)c1	1360
CCCCCCC(C)(C)c1cc(O)c(-c2cc(C(F)(F)F)cc(C(F)(F)F)c2)c(O)c1	9.7
CCCCCCC(C)(C)c1cc(O)c(-c2cc(C)c(OC)c(C)c2)c(O)c1	1080
CCCCCCC(C)(C)c1cc(O)c(-c2cc(Cl)cc(Cl)c2)c(OC)c1	105
CCCCCCC(C)(C)c1cc(O)c(-c2cc(Cl)cc(Cl)c2)c(O)c1	2.6

Now examine the next entry.
Query string: Provide only the value of recorded Ki for "CCCCCCC(C)(C)c1cc(O)c(-c2cccc(C(=O)OCC)c2)c(O)c1"
Result string: 241

###

# experimental.target: CB1 cannabinoid receptor (Rattus norvegicus, UniProt P20272)
# Construct: membranes were prepared from rat forebrain membranes; from tissue; host or cells: rat forebrain membranes
# test.description: CB1 receptor binding assay ([3H] CP-55,940 displacement, rat forebrain membranes)
# experimental.setup: 0.8 nM [3H] CP-55,940, read-out: CB1 (nM) binding affinity (Ki)
# Method: Some inventive analogs were tested for CB2 receptor binding affinity and for CB1 receptor affinity (to determine selectivity). […] The treated membranes were subsequently used in the binding assay described below. […] Radioactivity was detected using MicroScint 20 scintillation cocktail added directly to the dried filterplates, and the filterplates were counted using a Packard Instruments Top-Count. Nonspecific binding was assessed using 100 nM CP-55,940. […]
As shown below, each of these compounds has a reported log10 Ki value.
Recorded Ki (log10, nM)

CCCCCCCN(C)c1cc(O)c(-c2cc(OC)ccc2C(=O)N(C(C)C)C(C)C)c(OC)c1	3.27
CCCCCCC(C)(C)c1cc(O)c(-c2cc(CO)ccc2C)c(O)c1	1.85
CCCCCCC(C)(C)c1cc(O)c(-c2cc(Cl)ccc2Cl)c(O)c1	0.89
CCCCCCC(C)(C)c1cc(O)c(-c2c(F)cccc2F)c(O)c1	1.61
CCCCCCC(C)(C)c1cc(O)c(-c2ccccc2CO)c(O)c1	1.73

Query string: Please supply the value of reported log10 Ki for the item "CCCCCCC(C)(C)c1cc(O)c(-c2cc(O)ccc2CCCO)c(O)c1"
Result string: 1.09

Query string: Identify measured log10 Ki corresponding to "CCCCCCC(C)(C)c1cc(O)c(-c2cccc(/C=C/C(=O)OCC)c2)c(O)c1"
Result string: 2.60

Query string: Given "CCCCCCC(C)(C)c1cc(O)c(-c2cccc(C(C)=O)c2)c(O)c1" , respond with its log10 Ki.
Result string: 2.47

Query string: Answer with the recorded log10 Ki of "CCCCCCC(C)(C)c1cc(O)c(-c2cncc(C(=O)OCC)c2)c(O)c1" only.
Result string: 1.24
